Where these numbers come from: patent US5314999A

test system: Saccharomyces cerevisiae; assay: Growth inhibition in liquid medium (Sabouraud broth); assay type: cell-based; settings: Sabouraud broth, 28° C., 18 hours; read-out: IC 50 (growth-inhibiting concentration of 50%)
measured parameter: IC50 (nM)
API: value field is a number in nM; no unit string.

Observe how each entry below is paired with its result.
compound: CC(=O)NC[C@H]1OC(O)(CN[C@@H]2[C@H](O)[C@H](O[C@H]3/C=C/C=C/C=C/C=C/C=C/C=C/C=C/[C@H](C)[C@@H](O)[C@@H](C)[C@H](C)OC(=O)C[C@H](O)C[C@H](O)CC[C@@H](O)[C@H](O)C[C@H](O)C[C@]4(O)C[C@H](O)[C@@H](C(=O)O)[C@H](C3)O4)O[C@H](C)[C@H]2O)[C@@H](O)[C@@H]1O (stereo partly shown)
target of assay: Saccharomyces cerevisiae
IC50, nM: 1000
--
compound: C[C@@H]1[C@H](O)[C@@H](C)/C=C/C=C/C=C/C=C/C=C/C=C/C=C/[C@H](O[C@@H]2O[C@H](C)[C@@H](O)[C@H](NCC3(O)O[C@H](C(=O)O)[C@@H](O)[C@@H]3O)[C@@H]2O)C[C@@H]2O[C@](O)(C[C@@H](O)C[C@@H](O)[C@H](O)CC[C@@H](O)C[C@@H](O)CC(=O)O[C@H]1C)C[C@H](O)[C@H]2C(=O)O (stereo partly shown)
target of assay: Saccharomyces cerevisiae
IC50, nM: 860
--
compound: C[C@@H]1[C@H](O)[C@@H](C)/C=C/C=C/C=C/C=C/C=C/C=C/C=C/[C@H](O[C@@H]2O[C@H](C)[C@@H](O)[C@H](NCC(=O)[C@@H](O)[C@@H]3OC(c4ccccc4)OC[C@H]3O)[C@@H]2O)C[C@@H]2O[C@](O)(C[C@@H](O)C[C@@H](O)[C@H](O)CC[C@@H](O)C[C@@H](O)CC(=O)O[C@H]1C)C[C@H](O)[C@H]2C(=O)O (stereo partly shown)
target of assay: Saccharomyces cerevisiae
IC50, nM: 1000

Ask | Recall and state the measured IC50 for C[C@@H]1[C@H](O)[C@@H](C)/C=C/C=C/C=C/C=C/C=C/C=C/C=C/[C@H](O[C@@H]2O[C@H](C)[C@@H](O)[C@H](NCC3(O)O[C@H](C(N)=O)[C@@H](O)[C@@H]3O)[C@@H]2O)C[C@@H]2O[C@](O)(C[C@@H](O)C[C@@H](O)[C@H](O)CC[C@@H](O)C[C@@H](O)CC(=O)O[C@H]1C)C[C@H](O)[C@H]2C(=O)O (stereo partly shown) .
Reply | 620
